- target_or_test_system: human full-length MKNK1 (Homo sapiens (Human), UniProt Q9BUB5, T344D)
- Sequence (Q9BUB5 other isoform, or with tags, fused parts or gaps T344D): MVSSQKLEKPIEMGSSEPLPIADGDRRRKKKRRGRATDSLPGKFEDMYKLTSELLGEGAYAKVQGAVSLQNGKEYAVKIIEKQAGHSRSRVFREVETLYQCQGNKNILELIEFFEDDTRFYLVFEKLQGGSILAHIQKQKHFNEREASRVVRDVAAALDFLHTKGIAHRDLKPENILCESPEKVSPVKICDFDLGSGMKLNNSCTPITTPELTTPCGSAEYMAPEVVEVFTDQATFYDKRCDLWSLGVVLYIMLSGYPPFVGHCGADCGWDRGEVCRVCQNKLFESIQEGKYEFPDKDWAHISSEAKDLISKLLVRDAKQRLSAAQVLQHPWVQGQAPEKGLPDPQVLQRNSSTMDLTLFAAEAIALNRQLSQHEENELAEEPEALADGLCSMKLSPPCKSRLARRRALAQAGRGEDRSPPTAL
- method: MKNK1 kinase high ATP assay (TR-FRET)
- Type: biochemical
- cond: 2 mM ATP, 15 min preincubation with enzyme, GST-MKNK1 (T344D)
reported_property: IC50 (µM)
Numbers only, in µM.

- molecule: "Cc1cc(Nc2ncnc3c2ncn3CC(=O)N(C)C)c(=O)n2c1C(=O)NC21CCCCC1"
  unit_tag: "µM"
  IC50: 0.49
- molecule: "Cc1cc(Nc2ncnc3cc(Cl)ccc23)c(=O)n2c1C(=O)NC21CCCC1"
  unit_tag: "µM"
  IC50: 0.0055
- molecule: "Cc1ccc2c(Nc3cc(C)c4n(c3=O)C3(CCCCC3)NC4=O)ncnc2c1"
  unit_tag: "µM"
  IC50: 0.0071
- molecule: "Cc1cc(Nc2ncnc3[nH]ncc23)c(=O)n2c1C(=O)NC2(C)C"
  unit_tag: "µM"
  IC50: 0.0101
- molecule: "Cc1cc(Nc2ccnc(N)n2)c(=O)n2c1C(=O)NC21CCCCC1"
  unit_tag: "µM"
  IC50: 0.339

I would be grateful if you could provide IC50 for each of the following entries.
1. Cc1cc(Nc2ncnc3sc(C(=O)NCCN(C)C)cc23)c(=O)n2c1C(=O)NC21CCC(O)(C(F)(F)F)CC1 (centres unmarked)
2. CCOC(=O)Cn1cnc2c(Nc3cc(C)c4n(c3=O)C3(CCCCC3)NC4=O)ncnc21
3. Cc1cc(Nc2ncnc3ccc(F)cc23)c(=O)n2c1C(=O)N[C@]21CC[C@@](O)(C(F)(F)F)CC1

Result:
0.021
0.603
0.274

----------
- target_or_test_system: human full-length MKNK1 (Homo sapiens (Human), UniProt Q9BUB5, T344D)
- method: MKNK1 kinase high ATP assay (TR-FRET)
- Format: biochemical
- cond: 2 mM ATP, 15 min preincubation with enzyme, GST-MKNK1 (T344D)
reported_property: IC50
Form field: result (number plus unit)

See these solved cases before continuing.
- compound: "Cc1cc(Nc2ncnc3sc(C(=O)O)cc23)c(=O)n2c1C(=O)NC2(C)C [Example 136]"
  target_or_test_system: "human full-length MKNK1 (Homo sapiens (Human), UniProt Q9BUB5, T344D)"
  IC50: "122 nM"
- compound: "Cc1cc(Nc2ncnc3c2CN(C(=O)OC(C)(C)C)C3)c(=O)n2c1C(=O)NC21CCC1 [Example 162]"
  target_or_test_system: "human full-length MKNK1 (Homo sapiens (Human), UniProt Q9BUB5, T344D)"
  IC50: "21.7 nM"
- compound: "Cc1cc(Nc2ncnc3sccc23)c(=O)n2c1C(=O)NC21CSC1 [Example 177]"
  target_or_test_system: "human full-length MKNK1 (Homo sapiens (Human), UniProt Q9BUB5, T344D)"
  IC50: "4.3 nM"
- compound: "Cc1cc(Nc2ncnc3[nH]ccc23)c(=O)n2c1C(=O)NC21CCSCC1 [Example 196]"
  target_or_test_system: "human full-length MKNK1 (Homo sapiens (Human), UniProt Q9BUB5, T344D)"
  IC50: "0.5 nM"
- compound: "Cc1cc(Nc2ncnc3cccc(F)c23)c(=O)n2c1C(=O)NC21CCCCC1 [Example 41]"
  target_or_test_system: "human full-length MKNK1 (Homo sapiens (Human), UniProt Q9BUB5, T344D)"
  IC50: "14 nM"

Below is a list of compounds. For each, state its recorded IC50.
1. COc1cc2ncnc(Nc3cc(C)c4n(c3=O)C3(CCCCC3)NC4=O)c2cc1OC [Example 119]
2. Cc1cc(Nc2ncnc3c2ncn3CC(=O)N(C)CCN(C)C)c(=O)n2c1C(=O)NC21CCCCC1 [Example 50]
3. Cc1cc(Nc2ncnc3[nH]cnc23)c(=O)n2c1C(=O)NC2(C)C [Example 134]

Result:
1: 3 nM; 2: 950 nM; 3: 5.8 nM

----------
- target_or_test_system: human full-length MKNK1 (Homo sapiens (Human), UniProt Q9BUB5, T344D)
- method: MKNK1 kinase high ATP assay (TR-FRET)
- Format: biochemical
- cond: 2 mM ATP, 15 min preincubation with enzyme, GST-MKNK1 (T344D)
Classify: condition met when IC50 is strictly less than 20 nM; condition not met when IC50 is not.

- molecule: "Cc1cc(Nc2ncnc3c2CN(S(=O)(=O)CC(F)(F)F)C3)c(=O)n2c1C(=O)NC21CCCCC1 [Example 73]"
  target_or_test_system: "human full-length MKNK1 (Homo sapiens (Human), UniProt Q9BUB5, T344D)"
  label_value: "condition not met"
- molecule: "Cc1cc(Nc2ncnc3sc(C(=O)NCCN(C)C)cc23)c(=O)n2c1C(=O)NC21CCC(F)(F)CC1 [Example 81]"
  target_or_test_system: "human full-length MKNK1 (Homo sapiens (Human), UniProt Q9BUB5, T344D)"
  label_value: "condition met"
- molecule: "Cc1cc(Nc2ncnc3ccc(F)cc23)c(=O)n2c1C(=O)NC21CCCC1 [Example 185]"
  target_or_test_system: "human full-length MKNK1 (Homo sapiens (Human), UniProt Q9BUB5, T344D)"
  label_value: "condition met"

Ask: Determine whether this molecule shows IC50 lower than 20 nM (ties excluded): Cc1cc(Nc2ncnc3ccc(F)cc23)c(=O)n2c1C(=O)N[C@]21CC[C@@](O)(C(F)(F)C(F)(F)F)CC1 [Example 192]
Result: condition not met

Ask: Confirm or reject: IC50 of Cc1cc(Nc2ncnc(N)n2)c(=O)n2c1C(=O)NC21CCC1 [Example 147] lies strictly below 20 nM
Result: condition met

Ask: Please let me know if Cc1cc(Nc2ncnc3sc(C(=O)N(C)CCN(C)C)cc23)c(=O)n2c1C(=O)NC21CCC(F)(F)CC1 [Example 82] shows IC50 below 20 nM.
Result: condition met

Ask: Could you please tell me whether IC50 recorded for Cc1cc(Nc2ncnc3ccc(Cl)cc23)c(=O)n2c1C(=O)NC21CS(=O)(=O)C1 [Example 180] is less than 20 nM?
Result: condition not met

Ask: Is it true that IC50 reported for Cc1cc(Nc2ncnc3oc(C)c(C)c23)c(=O)n2c1C(=O)NC21CCCCC1 [Example 38] is less than 20 nM?
Result: condition not met

Ask: Strictly below 20 nM in IC50? Cc1cc(Nc2ncnc3sccc23)c(=O)n2c1C(=O)N[C@]21CC[C@@](O)(C(F)(F)C(F)(F)F)CC1 [Example 193]
Result: condition not met

Ask: Threshold test, IC50 < 20 nM: Cc1cc(Nc2ncnc3cccc(C)c23)c(=O)n2c1C(=O)NC21CS(=O)(=O)C1 [Example 179]
Result: condition not met

Ask: Find out if reported IC50 for CCOC(=O)N1Cc2ncnc(Nc3cc(C)c4n(c3=O)C3(CCCCC3)NC4=O)c2C1 [Example 76] is less than 20 nM
Result: condition met

Ask: Does the reported IC50 of Cc1cc(Nc2ncnc3cc(F)ccc23)c(=O)n2c1C(=O)NC21CCCCC1 [Example 112] stay below 20 nM?
Result: condition not met

Ask: Lab note: confirm whether the reported IC50 for this molecule is below 20 nM, equality not counting. molecule: Cc1cc(Nc2ncnc3sc(C(=O)O)c(C)c23)c(=O)n2c1C(=O)NC21CCC(F)(F)CC1 [Example 93]
Result: condition not met

Ask: Given the entry CCNC(=O)N1Cc2ncnc(Nc3cc(C)c4n(c3=O)C3(CCCCC3)NC4=O)c2C1 [Example 75] , would its reported IC50 be below 20 nM?
Result: condition met

Ask: Strictly below 20 nM: is that where IC50 of Cc1cc(Nc2ncnc3ccc(C(F)(F)F)cc23)c(=O)n2c1C(=O)NC21CCCC1 [Example 184] sits?
Result: condition not met

Ask: Is IC50 strictly under 20 nM for the entry Cc1cc(Nc2ncnc(NC(=O)C3CC3)n2)c(=O)n2c1C(=O)NC2(C)C [Example 40] ?
Result: condition not met

Ask: Hello, is IC50 of the following molecule strictly smaller than 20 nM? Cc1cc(Nc2ncnc3c2CN(C(=O)OC(C)(C)C)C3)c(=O)n2c1C(=O)NC21CCCCC1 [Example 35]
Result: condition met

----------
- target_or_test_system: human full-length MKNK1 (Homo sapiens (Human), UniProt Q9BUB5, T344D)
- method: MKNK1 kinase high ATP assay (TR-FRET)
- Format: biochemical
- cond: 2 mM ATP, 15 min preincubation with enzyme, GST-MKNK1 (T344D)
Returns: string. Value is t if measured IC50 is below 9 nM, and f if it is greater than or equal to it.

Example results:
- substance_smiles: "Cc1cc(Nc2ncnc3[nH]ccc23)c(=O)n2c1C(=O)NC2(C)C"
  label_value: "t"
- substance_smiles: "Cc1cc(Nc2ncnc3ccc(Cl)cc23)c(=O)n2c1C(=O)NC21CCSCC1"
  label_value: "f"
- substance_smiles: "Cc1cc(Nc2ncnc3sc(C(=O)NCCN(C)C)cc23)c(=O)n2c1C(=O)NC2(C)C"
  label_value: "f"
- substance_smiles: "Cc1cc(Nc2ncnc3sc(C(=O)N4CC[C@@H](N(C)C)C4)cc23)c(=O)n2c1C(=O)NC21CCC(F)(F)CC1"
  label_value: "f"
- substance_smiles: "Cc1cc(Nc2ncnc(N)n2)c(=O)n2c1C(=O)NC21CCCCC1"
  label_value: "t"
- substance_smiles: "Cc1cc(Nc2ncnc3cc(F)cc(F)c23)c(=O)n2c1C(=O)NC21CCCCC1"
  label_value: "t"

Ask: API: query returns whether the compound falls strictly under 9 nM in IC50. Query: Cc1cc(Nc2ncnc3c(Cl)cc(Cl)cc23)c(=O)n2c1C(=O)NC21CCCCC1
Result: f

Ask: Determine whether this compound shows IC50 lower than 9 nM (ties excluded): Cc1cc(Nc2ncnc3sc(C(=O)N4CCC(N(C)C)CC4)cc23)c(=O)n2c1C(=O)NC2(C)C
Result: f
